Collected efflux ratio at 180 min, 10 μM values appear next to each entry.
- measurement description: Bidirectional transport of silybin across Caco-2 cell monolayers
- Type: in vitro ADME, Human
- cond: human; Caco-2, silybin 10 μM, co-treatment with baicalein 5 μM; read-out: efflux ratio
Field format: numeric only.

> print(dat)
                                   compound                observation.type  reported.measurement
1  COc1cc([C@@H]2Oc3cc([C@H]4Oc5cc(O)cc(O)c5C(=O)[C@@H]4O)ccc3O[C@H]2CO)ccc1O [silybin B]  efflux ratio at 180 min, 10 μM                  2.33

In one line, give reported efflux ratio at 180 min, 10 μM of the entry COc1cc([C@H]2Oc3cc([C@H]4Oc5cc(O)cc(O)c5C(=O)[C@@H]4O)ccc3O[C@@H]2CO)ccc1O [silybin A] .
2.38

* * *

- measurement description: Pharmacokinetic study in rats after oral administration
- Assay type: in vivo, SD rats
- cond: male, SD, rat, plasma, po, 50 mg/kg, silybin 50 mg/kg oral, with baicalein 50 mg/kg, read-out: Tmax, free silybin
observation type: Tmax (h)
Respond with the bare value in h.

> print(dat)
                                   compound  reported.measurement
1  COc1cc([C@H]2Oc3cc([C@H]4Oc5cc(O)cc(O)c5C(=O)[C@@H]4O)ccc3O[C@@H]2CO)ccc1O [silybin A]                   1.5

Let's switch to this compound now.
In one line, give reported Tmax of the entry COc1cc([C@@H]2Oc3cc([C@H]4Oc5cc(O)cc(O)c5C(=O)[C@@H]4O)ccc3O[C@H]2CO)ccc1O [silybin B] .
1.29

* * *

- measurement description: Pharmacokinetic study in rats after oral administration
- Format: in vivo, SD rats
- cond: male, SD, rat, plasma, po, 50 mg/kg, silybin 50 mg/kg oral, with baicalein 50 mg/kg, read-out: MRT(0-t), free silybin
observation type: MRT last (h)
Respond with the bare value in h.

> print(dat)
                                item.smiles  reported.measurement
1  COc1cc([C@H]2Oc3cc([C@H]4Oc5cc(O)cc(O)c5C(=O)[C@@H]4O)ccc3O[C@@H]2CO)ccc1O                   1.9

Let's switch to this compound now.
In one line, give reported MRT last of the entry "COc1cc([C@@H]2Oc3cc([C@H]4Oc5cc(O)cc(O)c5C(=O)[C@@H]4O)ccc3O[C@H]2CO)ccc1O" .
2.1

* * *

- assay system: BCRP (Homo sapiens, UniProt Q9UNQ0)
- Construct: host or cells: MDCK II (canine kidney) cells transfected with BCRP
- Sequence (Q9UNQ0 whole entry): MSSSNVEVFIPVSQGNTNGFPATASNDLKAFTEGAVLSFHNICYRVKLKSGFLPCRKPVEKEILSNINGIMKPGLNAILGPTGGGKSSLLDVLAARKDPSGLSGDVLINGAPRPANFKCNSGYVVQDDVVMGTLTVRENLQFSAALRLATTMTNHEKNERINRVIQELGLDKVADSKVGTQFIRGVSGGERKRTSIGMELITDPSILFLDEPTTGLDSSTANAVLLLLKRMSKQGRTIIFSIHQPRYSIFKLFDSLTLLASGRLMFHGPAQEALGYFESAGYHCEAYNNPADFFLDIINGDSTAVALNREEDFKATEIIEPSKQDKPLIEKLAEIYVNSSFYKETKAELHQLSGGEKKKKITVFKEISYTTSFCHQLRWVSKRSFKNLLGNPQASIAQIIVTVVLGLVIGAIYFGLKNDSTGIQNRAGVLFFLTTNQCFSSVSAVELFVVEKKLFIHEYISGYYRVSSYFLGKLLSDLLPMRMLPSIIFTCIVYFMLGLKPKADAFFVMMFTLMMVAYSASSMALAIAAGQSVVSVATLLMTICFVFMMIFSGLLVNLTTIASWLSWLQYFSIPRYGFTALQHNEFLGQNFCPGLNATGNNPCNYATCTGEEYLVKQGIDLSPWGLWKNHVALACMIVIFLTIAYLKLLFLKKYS
- measurement description: Bidirectional transport of pheophorbide A in MDCKII-BCRP cells
- Assay type: cell-based
- cond: dog, absence of inhibitor
observation type: efflux ratio at 180 min
Field format: numeric only.

In one line, give reported efflux ratio at 180 min of the entry C=Cc1c(C)c2cc3nc(c4c5[nH]c(cc6nc(cc1[nH]2)C(C)=C6CC)c(C)c5C(=O)[C@@H]4C(=O)OC)[C@@H](CCC(=O)O)[C@@H]3C [pheophorbide A] .
2.82

* * *

Collected MRT last values appear next to each entry.
- measurement description: Pharmacokinetic study in rats after oral administration
- Assay type: in vivo, SD rats
- cond: male, SD, rat, plasma, po, 50 mg/kg, silybin 50 mg/kg oral, without baicalein, read-out: MRT(0-t), free silybin
Respond with the bare value in h.

> print(dat)
                                   molecule  unit.name  reported.measurement
1  COc1cc([C@H]2Oc3cc([C@H]4Oc5cc(O)cc(O)c5C(=O)[C@@H]4O)ccc3O[C@@H]2CO)ccc1O [silybin A]          h                   4.1

Let's switch to this molecule now.
In one line, give reported MRT last of the entry COc1cc([C@@H]2Oc3cc([C@H]4Oc5cc(O)cc(O)c5C(=O)[C@@H]4O)ccc3O[C@H]2CO)ccc1O [silybin B] .
4.21

* * *

- measurement description: Pharmacokinetic study in rats after oral administration
- Assay type: in vivo, SD rats
- cond: male, SD, rat, plasma, po, 50 mg/kg, silybin 50 mg/kg oral, with baicalein 50 mg/kg, read-out: t1/2z, free silybin (converted)
observation type: half-life (h)
Respond with the bare value in h.

> print(dat)
                                   compound  reported.measurement
1  COc1cc([C@H]2Oc3cc([C@H]4Oc5cc(O)cc(O)c5C(=O)[C@@H]4O)ccc3O[C@@H]2CO)ccc1O [silybin A]                   1.6

Let's switch to this compound now.
In one line, give reported half-life of the entry COc1cc([C@@H]2Oc3cc([C@H]4Oc5cc(O)cc(O)c5C(=O)[C@@H]4O)ccc3O[C@H]2CO)ccc1O [silybin B] .
1.34

* * *

- assay system: MDR1 (Homo sapiens, UniProt P08183)
- Construct: host or cells: MDCK II (canine kidney) cells transfected with MDR1
- Sequence (P08183 whole entry): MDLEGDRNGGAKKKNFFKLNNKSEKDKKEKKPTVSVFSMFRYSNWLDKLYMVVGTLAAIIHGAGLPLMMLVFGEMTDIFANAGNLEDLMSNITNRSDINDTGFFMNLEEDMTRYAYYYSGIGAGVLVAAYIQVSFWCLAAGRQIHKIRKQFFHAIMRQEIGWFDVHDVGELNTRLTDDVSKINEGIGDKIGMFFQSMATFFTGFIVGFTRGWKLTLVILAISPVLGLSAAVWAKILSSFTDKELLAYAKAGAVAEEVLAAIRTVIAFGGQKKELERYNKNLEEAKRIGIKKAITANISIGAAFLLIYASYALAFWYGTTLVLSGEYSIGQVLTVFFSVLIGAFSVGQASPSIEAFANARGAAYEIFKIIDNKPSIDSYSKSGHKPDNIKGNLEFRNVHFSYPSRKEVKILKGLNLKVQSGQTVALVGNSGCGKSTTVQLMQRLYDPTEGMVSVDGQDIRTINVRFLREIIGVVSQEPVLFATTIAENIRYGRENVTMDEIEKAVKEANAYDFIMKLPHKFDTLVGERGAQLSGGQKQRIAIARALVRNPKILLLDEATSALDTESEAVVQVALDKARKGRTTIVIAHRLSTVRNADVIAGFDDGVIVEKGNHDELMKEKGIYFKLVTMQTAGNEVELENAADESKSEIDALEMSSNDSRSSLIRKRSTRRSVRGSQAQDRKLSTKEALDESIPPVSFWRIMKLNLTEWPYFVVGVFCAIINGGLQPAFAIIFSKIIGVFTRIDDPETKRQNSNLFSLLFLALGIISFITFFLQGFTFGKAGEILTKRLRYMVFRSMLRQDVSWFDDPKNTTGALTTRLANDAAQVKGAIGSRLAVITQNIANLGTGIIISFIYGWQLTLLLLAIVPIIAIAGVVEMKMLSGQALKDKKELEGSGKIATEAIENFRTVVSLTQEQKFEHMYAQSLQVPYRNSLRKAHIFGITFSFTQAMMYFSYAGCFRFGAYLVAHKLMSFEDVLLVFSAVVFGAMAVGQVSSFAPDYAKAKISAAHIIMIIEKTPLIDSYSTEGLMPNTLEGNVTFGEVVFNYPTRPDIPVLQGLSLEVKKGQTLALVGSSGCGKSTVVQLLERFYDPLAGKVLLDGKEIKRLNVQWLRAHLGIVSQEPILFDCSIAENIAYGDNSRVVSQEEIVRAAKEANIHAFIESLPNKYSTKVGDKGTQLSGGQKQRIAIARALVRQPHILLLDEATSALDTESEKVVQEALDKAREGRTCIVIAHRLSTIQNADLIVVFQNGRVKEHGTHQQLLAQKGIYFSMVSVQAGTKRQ
- measurement description: Bidirectional transport of Rho123 in MDCKII-MDR1 cells
- Type: cell-based
- cond: dog, MDCK-MDR1, absence of inhibitor
observation type: efflux ratio at 180 min
Field format: numeric only.

In one line, give reported efflux ratio at 180 min of the entry COC(=O)c1ccccc1-c1c2ccc(=N)cc-2oc2cc(N)ccc12 [Rho123, Rhodamine 123] .
3.68
